Data provenance is paper PMC10197133.

Biological target: UniProtKB Q9R0C9
Experiment: S1R functional assay: S1R radioligand binding with or without phenytoin
Design: incubating 200 μL of membrane preparation with 50 μL of 20 nM; from tissue; host or cells: membrane preparation
Settings: concluded from Ki ratio control/with phenytoin
measure: S1R functional profile in vitro (phenytoin assay)

[[record]]
molecule = "O=C(Cc1ccccc1)N1CCC2(CC1)CN(CCc1ccccc1)C2 [5b]"
assayvalue = "antagonists for the S1R"

[[record]]
molecule = "c1ccc(CCCN2CCCC3CN(Cc4ccccc4)CC32)cc1 (stereo not shown) [8f]"
assayvalue = "antagonists for the S1R"


====

Target: S1R (Rattus norvegicus, UniProt Q9R0C9)
Sequence (Q9R0C9 whole entry): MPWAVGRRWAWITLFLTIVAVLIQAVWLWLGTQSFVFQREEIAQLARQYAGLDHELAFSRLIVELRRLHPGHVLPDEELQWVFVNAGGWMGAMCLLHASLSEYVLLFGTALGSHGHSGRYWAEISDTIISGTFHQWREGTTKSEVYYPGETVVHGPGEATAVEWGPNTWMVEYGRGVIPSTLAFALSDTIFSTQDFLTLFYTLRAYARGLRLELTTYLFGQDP
Assay: S1R functional assay: S1R radioligand binding with or without phenytoin
Parameters: incubating 200 μL of membrane preparation with 50 μL of 20 nM; from tissue; host or cells: membrane preparation
Settings: with phenytoin (20 μL of 25 mM in 0.5 mL), 120 min at 37 °C; read-out: Ki (nM) + phenythoin
measure: Ki (nM)
Give just the numeric value; nM need not be written.

input: Indicate its recorded Ki; the compound in question is c1ccc(CCN2CC3(CCN(Cc4ccccc4)CC3)C2)cc1
output: 1.2

input: Identify measured Ki associated with c1ccc(CCCN2CCCC3CN(Cc4ccccc4)CC32)cc1 (centres unmarked)
output: 12

input: Look up and report measured Ki for this entry: C=CCN1CC[C@]2(C)c3cc(O)ccc3C[C@H]1[C@H]2C [SKF-10,047, reference compound]
output: 17

input: Give the measured Ki for O=C(Cc1ccccc1)N1CCC2(CC1)CN(CCc1ccccc1)C2
output: 14

input: State, in one line, measured Ki of CN1CCN(CCc2ccc(Cl)c(Cl)c2)CC1.Cl.Cl [BD-1063, reference compound]
output: 10
